Data provenance: PubChem BioAssay (NCI)

# Test system: CAKI-1 renal
# Method: NCI-60 one-dose screen, 48 h (100 = growth as untreated, 0 = no growth, -100 = all killed)
# Condition Info: 10 µM unless noted
About 83,000 compounds went through this panel and 20% of them were active in at least one assay; those are over-represented in the sample as a whole. Active and inactive are the calls of the source. The calls were made as follows: active = growth percent below 10; inactive = the rest.
Value Kind: growth

Would you please look over these solved cases?
> print(dat)
                                   compound  value.kind            result
1     Cc1ccc(-c2nc(C(Cl)Cl)nc3cc(C)nn23)cc1      growth   -14.2% (active)
2  CC1=CCC[C@@H]2C1(C)CC[C@H](C)[C@@]2(C)CC1=CC(=O)C(SC(C)(C)C)=CC1=O (some centres undefined)      growth  78.4% (inactive)
3  CCOC(=O)NN1CC(O)=C(c2nc(-c3ccc(Br)cc3)cs2)C1=N      growth  92.9% (inactive)

Request - read-out growth | tested on CAKI-1 renal | compound N#Cc1c(NC(=O)c2cccs2)[n+]([O-])c2ccc(Cl)cc2[n+]1[O-]
73% (inactive)

----------
# Tested on: SF-268 CNS
# Method: NCI-60 one-dose screen, 48 h (100 = growth as untreated, 0 = no growth, -100 = all killed)
# Condition Info: 10 µM unless noted
Compounds without any hit were thinned out: in the full panel of roughly 83,000, 20% have a hit. Active and inactive are the calls of the source. Rule for the calls: active = growth percent below 10; inactive = the rest.
Value Kind: growth

> print(dat)
                                   compound                     result
1  C=CCCC(=O)N1C=CC(=O)[C@H](O)[C@@H]1/C=C/c1ccccc1  35.9% [100 µM] (inactive)

Request: growth, test system SF-268 CNS, entry Cc1[nH]c(C(=O)Nc2ccc(C(N)=O)cc2NC(C)C)c(Cl)c1Cl
86.5% (inactive)

Request - read-out growth | tested on SF-268 CNS | compound O=C(/C=C/c1cccc(Cl)c1)c1cccc(OCCCCOc2cccc(C(=O)/C=C/c3cccc(Cl)c3)c2)c1
96.6% (inactive)

# get_value(readout= growth, system= SF-268 CNS) for COc1cc(-c2nc3ccc(C)cc3[nH]2)ccc1OCC(=O)N=Nc1c(O)[nH]c2ccc(Cl)cc12
31.4% (inactive)

So what growth did Cc1ccc(C)n1/C=C/n1c(C)ccc1C get with SF-268 CNS?
143% (inactive)

----------
# Tested on: NCI-H522 lung
# Method: NCI-60 one-dose screen, 48 h
# Condition Info: 10 µM unless noted
This is part of a sample that, as a whole, favours compounds with a hit. Of some 83,000 tested, about 20% had one in any assay. Activity calls are given as the source filed them. The calls were made as follows: active = growth percent below 10; inactive = the rest.
Entry note: the call must match one of active, inactive

Example cases with answers are listed next.
> print(dat)
                                   molecule     label
1  Nc1nc(C(=O)N/N=C/c2ccc(N3CCOCC3)cc2)nn1-c1ccc(S(N)(=O)=O)cc1  inactive
2  O=C1NC(=O)c2c1c1c3ccccc3[nH]c1c1oc3cc(Br)ccc3c21  inactive
3  CN(C)c1ccc(/C=C/C(=O)c2ccc(Nc3nc(Nc4ccc(F)cc4)nc(Nc4ccc(Cl)cc4)n3)cc2)cc1  inactive
4  CCCCn1sc(=O)n(Cc2ccc(CNC(=O)OCc3ccc4c(Cl)cc(Cl)c(O)c4n3)cc2)c1=O  inactive
5  NS(=O)(=O)c1ccc(N/C=C/C(=O)c2cc3ccccc3oc2=O)cc1  inactive

What outcome does the record of this test show for COc1ccc(C/C(C)=C(/c2ccc(OCCN3CCCCCC3)cc2)c2ccc(OC(=O)NCc3ccccc3)cc2)cc1 ?
inactive

For this molecule, state the assay outcome: Cc1c(N2CN3C[C@H](C)N4CN(c5c(C)n(C)n(-c6ccccc6)c5=O)CN5C[C@@H](C)N(C2)C3C54)c(=O)n(-c2ccccc2)n1C (stereo partly drawn)
inactive

Write down the call the test reported for this molecule. Item: CCCNc1nc2ccccc2c2c(=O)c3cccc(Cl)c3sc12
inactive

Which outcome was entered for the molecule N=c1sc(Cc2cc(Cl)ccc2Cl)cn1CC(=O)c1ccccc1 in this test?
inactive

Give the logged outcome of this assay for the following molecule: CCCn1c(=S)sc2c1nc(C)n1c(Nc3ccccc3)nnc21
inactive

What was the test verdict on COc1cccc(/C=C/C(=O)c2cc3c(N)c(C(=O)Nc4ccccc4C)sc3nc2C)c1 ?
active

Please share the test call associated with O=C1Nc2ccccc2/C1=C/c1cn(C[C@@H](O)Cn2c3ccccc3c(=O)c3ccccc32)c2ccccc12 .
inactive

Hi, sorry to bother you, what did the test record for N#Cc1c(-c2ccccc2)cc(-c2ccccc2)n(CCCC(=O)NO)c1=O ?
inactive

Record request — test call for COc1cc(Nc2c3ccc(Cl)cc3nc3ccc(OC)cc23)c2ncccc2c1
inactive
